tested on: P. aerug. Ps296 VIM-2; test: Broth microdilution MIC, P. aeruginosa Ps296; format: cell-based; conditions: Pseudomonas aeruginosa; fixed meropenem 4 μg/mL, CAMHB, 16-20 hours 37° C.; read-out: MIC of exemplary compounds in presence of fixed β-lactams, Fixed Mero, P. aerug. Ps296 VIM-2
assayReadout: MIC

INSERT INTO measurements (molecule, reportedresult) VALUES
  ('N=C(N)N[C@H]1CC[C@H](CC(=O)N[C@H]2Cc3cccc(C(=O)O)c3OB2O)CC1 [Example 9]', '8 to 32 µg/mL'),
  ('NCC(=O)N[C@H]1CC[C@H](CC(=O)N[C@H]2Cc3cccc(C(=O)O)c3OB2O)CC1 [Example 68]', '8 to 32 µg/mL'),
  ('N[C@H]1CC[C@@H](CC(=O)N[C@H]2Cc3cccc(C(=O)O)c3OB2O)CC1 [Example 7]', '> 32 µg/mL'),
  ('NCCNC(=O)N[C@H]1CC[C@H](CC(=O)N[C@H]2Cc3cccc(C(=O)O)c3OB2O)CC1 [Example 59]', '< 4 µg/mL'),
  ('NC1CCC(O)(CC(=O)N[C@H]2Cc3cccc(C(=O)O)c3OB2O)CC1 (stereo partly drawn) [Example 44]', '8 to 32 µg/mL'),
  ('N=CN[C@H]1CC[C@H](CC(=O)N[C@H]2Cc3cccc(C(=O)O)c3OB2O)CC1 [Example 30]', '8 to 32 µg/mL');

# credit: patent US10669290B2
